test system: tomato seedlings; experiment: Tomato SAR trial, greenhouse foliar vigour (phytotoxicity) ratings (Example 9); conditions: 0, severe foliar injury; 10, foliage green in excellent health; each treatment followed by BONZI 5 ppm
quantity: Greenhouse Evaluations: Foliar Vigour Ratings (0-10)

Prompt: // lookup Greenhouse Evaluations: Foliar Vigour Ratings (0-10) for CC1(C)CC[C@]2(C(=O)O)CC[C@]3(C)C(=CC[C@@H]4[C@@]5(C)CC[C@H](O)C(C)(C)[C@@H]5CC[C@]43C)[C@@H]2C1 [Sapogenin 6, Oleanolic acid]
Response: 4.3

Prompt: What measured Greenhouse Evaluations: Foliar Vigour Ratings (0-10) goes with COC(=O)[C@@]1(C)CC[C@]2(C(=O)O)CC[C@]3(C)C(=CCC4[C@@]5(C)CCC(O)[C@@](C)(CO)C5CC[C@]43C)C2C1 (stereo partly drawn) [Sapogenin 4, Phytolaccagenic acid] ?
Response: 4.3

Prompt: Consider the compound shown here: CC1(C)CC[C@]2(C(=O)O)CC[C@]3(C)C(=CC[C@@H]4[C@@]5(C)CC[C@H](O)[C@@](C)(CO)[C@@H]5CC[C@]43C)[C@@H]2C1 [Sapogenin 2, Hederagenin] What is its recorded Greenhouse Evaluations: Foliar Vigour Ratings (0-10)?
Response: 5.3

----------
test system: tomato seedlings; test: Tomato SAR trial, greenhouse foliar vigour (phytotoxicity) ratings (Example 9); settings: 0, severe foliar injury; 10, foliage green in excellent health; each treatment followed by BONZI 5 ppm
quantity: Greenhouse Evaluations: Foliar Vigour Ratings (0-10)

Recorded results for 2 molecules are shown here.
CC1(C)CC[C@]2(C(=O)O)CC[C@]3(C)C(=CC[C@@H]4[C@@]5(C)CC[C@H](O)C(C)(C)[C@@H]5CC[C@]43C)[C@@H]2C1 [Sapogenin 3, Oleanolic acid]; 4.7
CC1(C)CC[C@]2(C(=O)O)CC[C@]3(C)C(=CC[C@@H]4[C@@]5(C)CC[C@H](O)[C@@](C)(CO)[C@@H]5CC[C@]43C)[C@@H]2C1 [Sapogenin 5, Hederagenin]; 4.3

Here is another molecule to look at.
Prompt: So what's the measured Greenhouse Evaluations: Foliar Vigour Ratings (0-10) for this one? COC(=O)[C@@]1(C)CC[C@]2(C(=O)O)CC[C@]3(C)C(=CCC4[C@@]5(C)CCC(O)[C@@](C)(CO)C5CC[C@]43C)C2C1 (stereo partly drawn) [Sapogenin 1, Phytolaccagenic acid]
Response: 5.7
